# GI50 per record follows
Test system: CCRF-CEM
Procedure summary: NCI tumour cell line growth inhibition, 48 h
The source made the active and inactive calls. No stated cut-off is given here; in the data, active = GI50 up to about 1.1 µM and inactive = higher.

| Compound | GI50 |
| --- | --- |
| CC(=O)c1c(C)cn(S(=O)(=O)NC(=O)Nc2nncs2)c1C | 23.3 µM (inactive) |
| Cc1[nH]c(-c2ccccc2)c(O)c1C(=O)OC1CC(C)CCC1C(C)C (stereo not given) | 11 µM (inactive) |
| Cc1c(N)nc([C@H](CC(N)=O)NC[C@H](N)C(N)=O)nc1C(=O)N[C@H](C(=O)N[C@H](C)[C@@H](O)CC(=O)N[C@H](C(=O)NC(O[C@@H]1O[C@@H](C)[C@@H](N)[C@@H](O)[C@H]1O)C(O)c1nc(-c2nc(C(=O)NCCCCN)cs2)cs1)[C@@H](C)O)[C@@H](O[C@@H]1O[C@@H](CO)[C@@H](O)[C@H](O)[C@@H]1O[C@H]1O[C@H](CO)[C@@H](O)[C@H](OC(N)=O)[C@@H]1O)c1c[nH]cn1 (stereo not given in full) | > 50 µM (inactive) |
| CCCCc1c2c(nc3c1CCc1cc4c(nc1-3)-c1nc3c(c(CCCC)c1CC4)CCC/C3=C\c1ccccc1)/C(=C/c1ccccc1)CCC2 | 48.6 µM (inactive) |
| COc1ccc(-c2cc(-c3ccc(Nc4ccnc5cc(C(F)(F)F)ccc45)cc3)[nH]c(=O)c2C#N)c2ccccc12 | > 20.9 µM (inactive) |
| O=C1Nc2ccc(Br)cc2/C1=N/c1ccc(Cl)cc1 | 11.6 µM (inactive) |
| Fc1ccc(C2SCc3nc4ccccc4n32)cc1 (stereo not given) | 42.1 µM (inactive) |
| O=C1/C(=C/c2cccc([N+](=O)[O-])c2)N=C(c2ccccc2)N1c1ccc2c(c1)Sc1cc(N3C(=O)/C(=C/c4cccc([N+](=O)[O-])c4)N=C3c3ccccc3)ccc1N2 | 16.9 µM (inactive) |
| COc1cc2c(cc1OC)C(CC1=C(c3ccccc3)CN3CCc4cc(OC)c(OC)cc4C3C1)NCC2 (stereo not given) | 14.6 µM (inactive) |
| COc1ccc(NC(=O)C(=O)Cc2nc3ccc(C(=O)c4ccccc4)cc3nc2O)c([N+](=O)[O-])c1 | 28.2 µM (inactive) |
| N#CC1=C(c2ccccc2)C(O)(c2ccccc2)NC1=O (stereo not given) | 70.5 µM (inactive) |
| CC(=O)O[C@@]12[C@@H]3O[C@@]4(O)C[C@]5(C)[C@H]6C[C@@](C(C)C)(O[C@H]5c5ccoc5)O[C@H]1[C@]6(C4)O[C@]2(O)C(C)=CC3(C)C | > 100 µM (inactive) |
| O=C1c2c(nc3ccccc3c2-c2ccccc2)CN1Nc1ccccc1 | > 100 µM (inactive) |
| Cc1nn(C)cc1P(=S)(c1ccccc1)c1ccccc1 | 31.8 µM (inactive) |
| O=C1c2cnccc2Cc2cccc3c2N1c1ccccc1S3 | 27.5 µM (inactive) |
| Cc1cc(=O)n2nc(SCc3ccccc3)sc2n1 | > 100 µM (inactive) |
| CCC1NC(/N=N/c2ccc([N+](=O)[O-])cc2)(P(=O)(OC(C)C)OC(C)C)OC1=O (stereo not given) | > 100 µM (inactive) |
| O=C(O)c1cccc(S(=O)(=O)NN2C(=O)CSC2c2ccc(Cl)cc2Cl)c1 (stereo not given) | 9.75 µM (inactive) |
| CC(=O)N1N=C(c2ccc3ccccc3c2O)CC1c1ccc(N(C)C)cc1 (stereo not given) | > 100 µM (inactive) |
| COc1ccc(CNc2nc3ccccc3nc2C(=O)O)cc1 | 83.4 µM (inactive) |
